Biological target: HLA-A*02:01 (Homo sapiens, UniProt P04439, D140Y/D185E/D98H/E176V/E277Q/G131W/G231S/I119V/I121R/I166T/I218V/L300P/L318F/N151K/N90K/P208A/P217A/Q86G/Q94H/R138H/R169H/T345S)
Assay: MHC binding assay (UV-ligand exchange, ELISA of exchange yield)
Conditions: binding to HLA-A*02:01, UV-ligand exchange
Excerpt: Candidate peptides for T cell based therapies according to the present invention were further tested for their MHC binding capacity (affinity). The individual peptide-MHC complexes were produced by UV-ligand exchange, where a UV-sensitive peptide is cleaved upon UV-irradiation, and exchanged with the peptide of interest as analyzed. Only peptide candidates that can effectively bind and stabilize the peptide-receptive MHC molecules prevent dissociation of the MHC complexes. […]
result_type: Peptide exchange (MHC class I binding score, peptide exchange yield)

Worked examples follow.
161 (ALLEGVNTV; listed as Homo sapiens) [compound 161] | “+++” (≥50 = +++)
452 (ILLEHGADPNL; listed as Homo sapiens) [compound 452] | “+++” (≥50 = +++)
587 (VMNDRLYAI; listed as Homo sapiens) [compound 587] | “+++” (≥50 = +++)
317 (SLAALVVHV; listed as Homo sapiens) [compound 317] | “+++” (≥50 = +++)
538 (LLLAHIIAL; listed as Homo sapiens) [compound 538] | “++” (≥20% = ++)

Briefly, Peptide exchange (MHC class I binding score, peptide exchange yield) measured for 498 (KLWTGGLDNTV; listed as Homo sapiens) [compound 498] : “+++” (≥50 = +++)

Noted for 619 (ALQDRVPLA; listed as Homo sapiens) [compound 619] : its Peptide exchange (MHC class I binding score, peptide exchange yield) reads “+++” (≥50 = +++)

Reported Peptide exchange (MHC class I binding score, peptide exchange yield) ( 562 (YLEELPEKLKL; listed as Homo sapiens) [compound 562] ) = “+++” (≥50 = +++)

Reported Peptide exchange (MHC class I binding score, peptide exchange yield) for 380 (TLIEDEIATI; listed as Homo sapiens) [compound 380] was “++” (≥20% = ++)

Data point: 560 (ALWDIETGQQTTT; listed as Homo sapiens) [compound 560] ; Peptide exchange (MHC class I binding score, peptide exchange yield) = “+++” (≥50 = +++)

get_value(item= 372 (TMLLNIPLV; listed as Homo sapiens) [compound 372] , readout=Peptide exchange (MHC class I binding score, peptide exchange yield)) returns “++” (≥20% = ++)

So for 593 (GLPRFGIEMV; listed as Homo sapiens) [compound 593] , the logged Peptide exchange (MHC class I binding score, peptide exchange yield) turned out to be “+++” (≥50 = +++)

Entry under test: 336 (ILLTAIVQV; listed as Homo sapiens) [compound 336] . Its Peptide exchange (MHC class I binding score, peptide exchange yield) was “+++” (≥50 = +++)

Entry under test: 285 (QLLHVGVTV; listed as Homo sapiens) [compound 285] . Its Peptide exchange (MHC class I binding score, peptide exchange yield) was “+++” (≥50 = +++)

The substance listed as 304 (MTLGQIYYL; listed as Homo sapiens) [compound 304] shows Peptide exchange (MHC class I binding score, peptide exchange yield) equal to “+++” (≥50 = +++)

Entry 25 (FLPDEPYIKV; listed as Homo sapiens) [compound 25] — recorded Peptide exchange (MHC class I binding score, peptide exchange yield) = “+++” (≥50 = +++)

Just so you know, measured Peptide exchange (MHC class I binding score, peptide exchange yield) for 510 (KLYSVVSQL; listed as Homo sapiens) [compound 510] came out at “++” (≥20% = ++)

Documented Peptide exchange (MHC class I binding score, peptide exchange yield) of 98 (LIIDQADIYL; listed as Homo sapiens) [compound 98] : “+++” (≥50 = +++)

Recorded Peptide exchange (MHC class I binding score, peptide exchange yield) (substance 403 (KLYDRILRV; listed as Homo sapiens) [compound 403] ): “++” (≥20% = ++)
